Recorded IC50 for the following compounds
- Tested on: Phospho-Rb Ser807/811 in OVCAR3 cells
- assay_explanation: OVCAR3 Phospho-Rb Ser807/811 HTRF assay
- Assay type: cell-based
- condition_notes: Homo sapiens, OVCAR-3, 1 h, OVCAR3 cells, Phospho-Rb Ser807/811 HTRF, 1 hour incubation; read-out: pRb-OVCAR3 IC50

- structure_notation: "COc1cc(O)c(C=O)c(OCC(=O)Nc2cc([C@H]3CC[C@@H](OC(=O)N4CCCCC4)C3)[nH]n2)c1"
  system_name: "Phospho-Rb Ser807/811 in OVCAR3 cells"
  IC50 (nM): 14.2
- structure_notation: "COc1cc(O)c(C=O)c(OCC(=O)Nc2cc([C@H]3CC[C@@H](OC(=O)N4CCOC[C@H]4C)C3)[nH]n2)c1"
  system_name: "Phospho-Rb Ser807/811 in OVCAR3 cells"
  IC50 (nM): 27.4
- structure_notation: "CC(C)NC(=O)O[C@@H]1CC[C@H](c2cc(NC(=O)c3ccc(C=O)c(O)c3)n[nH]2)C1"
  system_name: "Phospho-Rb Ser807/811 in OVCAR3 cells"
  IC50 (nM): 68
- structure_notation: "CCCONC(=O)O[C@@H]1CC[C@H](c2cc(NC(=O)COc3cc(OC)cc(O)c3C=O)n[nH]2)C1"
  system_name: "Phospho-Rb Ser807/811 in OVCAR3 cells"
  IC50 (nM): 92.7
- structure_notation: "COc1cc(O)c(C=O)c(O[C@H](C)C(=O)Nc2cc([C@H]3CC[C@@H](OC(=O)NC4(C)CC4)C3)[nH]n2)c1"
  system_name: "Phospho-Rb Ser807/811 in OVCAR3 cells"
  IC50 (nM): 24.9
- structure_notation: "COc1cc(O)c(C=O)c(OCC(=O)Nc2cc([C@H]3CC[C@@H](OC(=O)N[C@@H](C)CC#N)C3)[nH]n2)c1"
  system_name: "Phospho-Rb Ser807/811 in OVCAR3 cells"
  IC50 (nM): 27.7
- structure_notation: "O=Cc1c(O)cccc1OCC(=O)Nc1cc([C@H]2CC[C@@H](OC(=O)NC3CC3)C2)[nH]n1"
  system_name: "Phospho-Rb Ser807/811 in OVCAR3 cells"
  IC50 (nM): 212
- structure_notation: "CC(C)NC(=O)O[C@@H]1CC[C@H](c2cc(NC(=O)COc3cc(OC(C)C)cc(O)c3C=O)n[nH]2)C1"
  system_name: "Phospho-Rb Ser807/811 in OVCAR3 cells"
  IC50 (nM): 65.8
- structure_notation: "COc1cc(O)c(C=O)c(OCC(=O)Nc2cc([C@H]3CC[C@@H](OC(=O)N(C)C(C)C)C3)[nH]n2)c1"
  system_name: "Phospho-Rb Ser807/811 in OVCAR3 cells"
  IC50 (nM): 21.2
- structure_notation: "COc1cc(O)c(C=O)c(OCC(=O)Nc2cc([C@H]3CC[C@@H](OC(=O)NC4(C)CC4)C3)[nH]n2)c1"
  system_name: "Phospho-Rb Ser807/811 in OVCAR3 cells"
  IC50 (nM): 15.1
- structure_notation: "COc1cc(O)c(C=O)c(OCC(=O)Nc2cc([C@H]3CC[C@@H](OC(=O)N[C@@H](C)CF)C3)[nH]n2)c1"
  system_name: "Phospho-Rb Ser807/811 in OVCAR3 cells"
  IC50 (nM): 13.4
- structure_notation: "COc1cc(OC)c2c(c1C=O)C[C@H](C(=O)Nc1cc([C@H]3C[C@@H](OC(=O)NC(C)C)C3)[nH]n1)C2"
  system_name: "Phospho-Rb Ser807/811 in OVCAR3 cells"
  IC50 (nM): 375
- structure_notation: "C#Cc1cccc(-c2cc(C(=O)Nc3cc([C@H]4CC[C@@H](OC(=O)NC(C)C)C4)[nH]n3)n(C)n2)c1C=O"
  system_name: "Phospho-Rb Ser807/811 in OVCAR3 cells"
  IC50 (nM): 2430
- structure_notation: "C#CCNC(=O)O[C@@H]1CC[C@H](c2cc(NC(=O)COc3cc(OC)cc(O)c3C=O)n[nH]2)C1"
  system_name: "Phospho-Rb Ser807/811 in OVCAR3 cells"
  IC50 (nM): 28.7
- structure_notation: "CC(C)NC(=O)O[C@@H]1CC[C@H](c2cc(NC(=O)c3cn(-c4cccc(O)c4C=O)nc3C(F)F)n[nH]2)C1"
  system_name: "Phospho-Rb Ser807/811 in OVCAR3 cells"
  IC50 (nM): 1690
- structure_notation: "COc1cc(O)c(C=O)c(OCC(=O)Nc2cc([C@H]3CC[C@@H](OC(=O)N4CC(F)(F)C4)C3)[nH]n2)c1"
  system_name: "Phospho-Rb Ser807/811 in OVCAR3 cells"
  IC50 (nM): 44.5
- structure_notation: "COc1ccc(-c2cc(C(=O)Nc3cc([C@H]4CC[C@@H](OC(=O)NC(C)C)C4)[nH]n3)n(C)n2)c(C=O)c1O"
  system_name: "Phospho-Rb Ser807/811 in OVCAR3 cells"
  IC50 (nM): 523
- structure_notation: "CC(C)NC(=O)O[C@@H]1CC[C@H](c2cc(Nc3cc(COc4cccc(O)c4C=O)ccn3)n[nH]2)C1"
  system_name: "Phospho-Rb Ser807/811 in OVCAR3 cells"
  IC50 (nM): 3760
- structure_notation: "CCCN(C)C(=O)O[C@@H]1CC[C@H](c2cc(NC(=O)COc3cc(OC)cc(O)c3C=O)n[nH]2)C1"
  system_name: "Phospho-Rb Ser807/811 in OVCAR3 cells"
  IC50 (nM): 18.7
- structure_notation: "COc1cc(O)c(C=O)c(OCC(=O)Nc2cc([C@H]3CC[C@@H](OC(=O)N(C)CCC#N)C3)[nH]n2)c1"
  system_name: "Phospho-Rb Ser807/811 in OVCAR3 cells"
  IC50 (nM): 23.5
- structure_notation: "COc1cc(O)c(C=O)c(-c2cc(C(=O)Nc3cc([C@H]4CC[C@@H](OC(=O)NC(C)C)C4)[nH]n3)n(C)n2)c1"
  system_name: "Phospho-Rb Ser807/811 in OVCAR3 cells"
  IC50 (nM): 125
- structure_notation: "CC(C)NC(=O)O[C@@H]1CC[C@H](c2cc(NC(=O)Cc3cnc(-c4cccc(O)c4C=O)s3)n[nH]2)C1"
  system_name: "Phospho-Rb Ser807/811 in OVCAR3 cells"
  IC50 (nM): 475
- structure_notation: "O=Cc1c(O)cccc1OCC(=O)Nc1cc([C@H]2CC[C@@H](OC(=O)NC3CCC3)C2)[nH]n1"
  system_name: "Phospho-Rb Ser807/811 in OVCAR3 cells"
  IC50 (nM): 208
- structure_notation: "CC(C)NC(=O)O[C@@H]1CC[C@H](c2cc(NC(=O)COc3cccc(NS(C)(=O)=O)c3C=O)n[nH]2)C1"
  system_name: "Phospho-Rb Ser807/811 in OVCAR3 cells"
  IC50 (nM): 161
- structure_notation: "COc1cc(O)c(C=O)c(OCC(=O)Nc2cc([C@H]3CC[C@@H](OC(=O)NC4(C(F)F)CC4)C3)[nH]n2)c1"
  system_name: "Phospho-Rb Ser807/811 in OVCAR3 cells"
  IC50 (nM): 16.1
- structure_notation: "COc1cc(O)c(C=O)c(OCC(=O)Nc2cc([C@H]3CC[C@@H](OC(=O)N4[C@@H](C)COC[C@@H]4C)C3)[nH]n2)c1"
  system_name: "Phospho-Rb Ser807/811 in OVCAR3 cells"
  IC50 (nM): 21.8
- structure_notation: "CC(C)NC(=O)O[C@@H]1CC[C@H](c2cc(NC(=O)COc3ccc(F)c(O)c3C=O)n[nH]2)C1"
  system_name: "Phospho-Rb Ser807/811 in OVCAR3 cells"
  IC50 (nM): 212
